Origin of the recorded values: paper PMC5225183

Tested on: EF1α promoter
measurementSetup: ESC-derived neurons, 48 h exposure
measuredQuantity: LOAEL Neurons EF1α

Solved cases (2 shown):
[Br][Hg][Br] [Mercury bromide] : >10 µM
OC[C@@H](O)[C@@H](O)[C@H](O)[C@H](O)CO [D-mannitol] : >50 µM

Input: Give the measured LOAEL Neurons EF1α of COCC(=O)O [Methoxyacetic acid] .
Output: >50 µM

Input: Cool, now O=C(NC[C@H]1CN(c2ccc(N3CCOCC3=O)cc2)C(=O)O1)c1ccc(Cl)s1 [Rivaroxaban]
Output: >10 µM

----------
Tested on: Tubulin α1 (Tα1) promoter
procedureDetails: cells
measurementSetup: ESC-derived neurons, 48 h exposure
# reported LOAEL Neurons Tα1; entries follow

Solved cases (2 shown):
CCCc1nn(C)c2c(=O)[nH]c(-c3cc(S(=O)(=O)N4CCN(C)CC4)ccc3OCC)nc12 [Sildenafil] : >50 µM
O=C(NC[C@H]1CN(c2ccc(N3CCOCC3=O)cc2)C(=O)O1)c1ccc(Cl)s1 [Rivaroxaban] : >10 µM

Input: Give the measured LOAEL Neurons Tα1 of Brc1ccc(Oc2cc(Br)c(Br)cc2Br)c(Br)c1 [PBDE-99] .
Output: >50 µM

Input: Cool, now O=C(/C=C/c1cccc(S(=O)(=O)Nc2ccccc2)c1)NO [Belinostat]
Output: 0.0005 µM

Input: Cool, now CCCC(CCC)C(=O)O [Valproic acid]
Output: 50 µM

Input: Cool, now COCCCOc1cc(C[C@@H](C[C@H](N)[C@@H](O)C[C@H](C(=O)NCC(C)(C)C(N)=O)C(C)C)C(C)C)ccc1OC [Aliskiren]
Output: >50 µM

Input: Cool, now [CH3][Hg][Cl] [Methylmercury]
Output: 0.05 µM

Input: Cool, now CC(C1CC1)C(O)(Cn1cncn1)c1ccc(Cl)cc1 (centres unmarked) [Cyproconazole]
Output: >50 µM

----------
System: Tubulin α1 (Tα1) promoter
procedureDetails: cells
measurementSetup: ESC-derived neurons, 48 h exposure
measuredQuantity: LOAEL Neurons Tα1

CC(C)Cc1ccc(C(C)C(=O)O)cc1 (stereo not drawn) [Ibuprofen] : >50 µM
N[C@@H](CC(=O)N1CCn2c(nnc2C(F)(F)F)C1)Cc1cc(F)c(F)cc1F [Sitagliptin] : >50 µM

Then there is this molecule:
Input: Give the measured LOAEL Neurons Tα1 of O=c1[nH]c(=O)c2[nH]c(=O)[nH]c2[nH]1 [Uric acid] .
Output: >50 µM

----------
System: ESC-derived neurons
measurementSetup: ESC-derived neurons, 48 h exposure, PI assay (cytotoxicity)
# reported LOAEL Neurons DNA; entries follow

Solved cases (6 shown):
Cc1ccc(NC(=O)c2ccc(CN3CCN(C)CC3)cc2)cc1Nc1nccc(-c2cccnc2)n1 [Imatinib] : >10 µM
[Br][Hg][Br] [Mercury bromide] : >10 µM
C[C@]12CC[C@H](O)CC1=CC[C@@H]1[C@@H]2CC[C@]2(C)C(c3cccnc3)=CC[C@@H]12 [Abiraterone] : >2 µM
COCCCOc1cc(C[C@@H](C[C@H](N)[C@@H](O)C[C@H](C(=O)NCC(C)(C)C(N)=O)C(C)C)C(C)C)ccc1OC [Aliskiren] : >50 µM
CC(C)Cc1ccc(C(C)C(=O)O)cc1 (stereo not shown) [Ibuprofen] : >50 µM
O=c1[nH]c(=O)c2[nH]c(=O)[nH]c2[nH]1 [Uric acid] : >50 µM

Then there is this molecule:
Input: Give the measured LOAEL Neurons DNA of COc1ccc2[nH]c([S+]([O-])Cc3ncc(C)c(OC)c3C)nc2c1 (stereo not shown) [Omeprazole] .
Output: >50 µM
